// IC90 lookup, one value per entry
- Tested on: Mycobacterium tuberculosis H37Rv growth in 7H9 media
- EXPERIMENTAL PROTOCOL: M. tuberculosis growth inhibition, dose response, H37Rv, purified and synthesized compounds (AID 493198)
- TEST PARAMETERS: 90% growth inhibition concentration
Where a SMILES comes first, the peptide text is derived from it.

{"COMPOUND": "O=C(CSc1nc2ccccc2c(=O)[nH]1)NCc1ccc(Cl)cc1", "IC90": "0.929 µM"}
{"COMPOUND": "O=C(NCC(c1cccs1)N1CCOCC1)c1cc([N+](=O)[O-])cc([N+](=O)[O-])c1 (stereo not given)", "IC90": "< 0.2 µM"}
{"COMPOUND": "O=C(CSc1nc2ccccc2c(=O)[nH]1)NC1CCCCC1", "IC90": "< 0.2 µM"}
{"COMPOUND": "CCOC(=O)COc1ccc(/C=C2\\NC(=S)N(CC)C2=O)cc1", "IC90": "5.2 µM"}
{"COMPOUND": "O=C(/C=C\\c1cccs1)N1CCN(Cc2ccc3c(c2)OCO3)CC1", "IC90": "7.48 µM"}
{"COMPOUND": "Cc1cccc(/C=C/C(=O)c2ccc([N+](=O)[O-])o2)c1", "IC90": "< 0.2 µM"}
{"COMPOUND": "CCOC(=O)CNC(=O)[C@H](Cc1ccccc1)NC(=O)OCc1ccccc1 (HELM PEPTIDE1{[O=C(OCc1ccccc1)[*:2]].F.G.[CCO[*:1]]}$$$$V2.0)", "IC90": "1.86 µM"}
{"COMPOUND": "O=C1C(Br)=Cc2cccc3cccc1c23", "IC90": "< 0.2 µM"}
{"COMPOUND": "CCOC(=O)C(C)Sc1ncnc2c1nnn2-c1ccc(F)cc1 (stereo not given)", "IC90": "7.77 µM"}
{"COMPOUND": "COC(=O)CCc1nc2c(C#N)c(-c3ccc(Cl)cc3)ccn2n1", "IC90": "14 µM"}

* * *

- Test system: Mycobacterium tuberculosis H37Rv growth in 7H9 media
- EXPERIMENTAL PROTOCOL: M. tuberculosis growth inhibition, dose response, H37Rv, purified and synthesized compounds (AID 493198)
- TEST PARAMETERS: 90% growth inhibition concentration
Threshold 3000 nM. IC90 below it: MET. IC90 at it or above: NOT MET.

{"MOLECULE": "Cc1nn2c(NCc3ccccn3)cc(C(C)C)nc2c1-c1ccccc1", "ANSWER LABEL": "MET"}
{"MOLECULE": "CCOC(=O)COn1c2c(c3c4no[n+]([O-])c4ccc31)CCCC2", "ANSWER LABEL": "NOT MET"}
{"MOLECULE": "Cc1nc(SCC(=O)NC2CCCCC2)[nH]c(=O)c1C", "ANSWER LABEL": "MET"}
{"MOLECULE": "COC(=O)C1CC(=O)N(c2ccc(OCc3ccccc3Cl)cc2)C1 (stereo unspecified)", "ANSWER LABEL": "NOT MET"}
{"MOLECULE": "CCC(C)Nc1ccc(NC(C)CC)cc1 (stereo unspecified)", "ANSWER LABEL": "MET"}
{"MOLECULE": "CCOC(=O)c1ccc(NC(=O)Cn2ncc(Cl)c(Cl)c2=O)cc1", "ANSWER LABEL": "MET"}
{"MOLECULE": "Cc1ccc2c(c1)c(C1=c3ccccc3=NC1=O)c(O)n2C", "ANSWER LABEL": "MET"}
{"MOLECULE": "c1ccc(/N=C2\\N=C(Nc3ccccn3)c3ccccc32)nc1", "ANSWER LABEL": "MET"}
{"MOLECULE": "CNc1nc(SCc2ccccc2Cl)nc2c1CCCC2", "ANSWER LABEL": "NOT MET"}
{"MOLECULE": "COC(=O)c1cc(=O)n(-c2ccc(F)cc2)c(=Nc2ccc(F)cc2)s1", "ANSWER LABEL": "MET"}

* * *

- Tested on: Mycobacterium tuberculosis H37Rv growth in 7H9 media
- EXPERIMENTAL PROTOCOL: M. tuberculosis growth inhibition, dose response, H37Rv, purified and synthesized compounds (AID 493198)
- TEST PARAMETERS: 90% growth inhibition concentration

{"COMPOUND": "CCc1ccc(/C=C2/C(=O)N(C)C(=S)N2CC(=O)OC)s1", "TESTED SYSTEM": "Mycobacterium tuberculosis H37Rv growth in 7H9 media", "VALUE OPERATOR": "=", "IC90 [µM]": 17.7}
{"COMPOUND": "Cc1ccc2ccc3ccc(C)nc3c2n1", "TESTED SYSTEM": "Mycobacterium tuberculosis H37Rv growth in 7H9 media", "VALUE OPERATOR": "<", "IC90 [µM]": 0.2}
{"COMPOUND": "Cc1ccc(NC(=O)C2C3/C=C\\CCCCC32)cc1C (stereo not drawn)", "TESTED SYSTEM": "Mycobacterium tuberculosis H37Rv growth in 7H9 media", "VALUE OPERATOR": "=", "IC90 [µM]": 1.84}

* * *

- Test system: Mycobacterium tuberculosis H37Rv growth in 7H9 media
- EXPERIMENTAL PROTOCOL: M. tuberculosis growth inhibition, dose response, H37Rv, purified and synthesized compounds (AID 493198)
- TEST PARAMETERS: 90% growth inhibition concentration
ASSAY READOUT: IC90 (µM)

{"COMPOUND": "COc1cc(NC(=O)C/C(C)=N/NC(=O)c2ccccn2)c(OC)cc1Cl", "VALUE OPERATOR": "=", "RECORDED RESULT": 4.88}
{"COMPOUND": "O=C(/C=C/c1ccccc1)N1CCN(CCN2C(=O)c3cccc4cccc(c34)C2=O)CC1", "VALUE OPERATOR": "=", "RECORDED RESULT": 5.32}
{"COMPOUND": "S=c1nc[nH]c2nc[nH]c12", "VALUE OPERATOR": "=", "RECORDED RESULT": 1.76}
{"COMPOUND": "CC(C)NC(=O)c1sc(=S)n2c1[nH]c(=O)c1ccc(C(=O)NCCc3ccc(Cl)cc3)cc12", "VALUE OPERATOR": "<", "RECORDED RESULT": 0.2}
{"COMPOUND": "CC(=NCc1ccc2c(c1)OCO2)C1=C(O)c2ccccc2C1=O", "VALUE OPERATOR": "=", "RECORDED RESULT": 23.1}
